Where do these numbers come from? They come from paper PMC11580166.

Target: T1, VPS26A/VPS26B heterodimer (Arabidopsis thaliana, UniProt Q9FJD0 1-302; Q9T091 1-303)
T1 chain 1: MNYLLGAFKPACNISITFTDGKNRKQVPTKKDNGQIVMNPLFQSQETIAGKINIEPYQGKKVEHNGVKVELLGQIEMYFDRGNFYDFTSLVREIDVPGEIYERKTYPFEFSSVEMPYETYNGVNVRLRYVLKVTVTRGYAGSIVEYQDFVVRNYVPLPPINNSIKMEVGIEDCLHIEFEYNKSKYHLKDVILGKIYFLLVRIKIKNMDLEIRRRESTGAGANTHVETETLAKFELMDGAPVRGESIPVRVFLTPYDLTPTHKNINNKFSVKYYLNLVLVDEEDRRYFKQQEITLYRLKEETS
T1 chain 2: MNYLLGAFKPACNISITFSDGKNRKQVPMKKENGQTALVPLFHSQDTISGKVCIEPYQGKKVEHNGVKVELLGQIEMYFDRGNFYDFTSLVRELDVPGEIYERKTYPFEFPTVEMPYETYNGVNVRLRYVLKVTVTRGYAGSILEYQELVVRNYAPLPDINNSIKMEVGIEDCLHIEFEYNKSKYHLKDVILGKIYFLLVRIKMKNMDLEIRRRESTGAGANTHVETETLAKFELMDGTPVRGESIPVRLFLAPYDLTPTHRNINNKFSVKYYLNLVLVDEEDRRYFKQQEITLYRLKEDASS
Assay: ITC; phosphorylated S428, S431, S435
pKd: −log10 of the molar value. Where no end group is shown, it is not given here. [ ]: non-standard residue; d: D form. pS = N[C@@H](COP(=O)(O)O)C(=O)O
Outcome measure: pKd

1. GGGAMHKEGY[pS]FS[pS]PRL[pS]SVQGSDDPFYQEHMSKSSRCSSPG (N-terminal GGG added to the peptide; AtRGS1 C-terminal tail, Arabidopsis thaliana, UniProt Q8H1F2, residues A421-G459; Purity 87%; also called RGS1 pC-tail; ptail; source: synthetic peptide (UNC Peptide Core Facility)) [AtRGS1 pSer C tail peptide (A421-G459, phosphorylated at S428, S431, S435)] : 7.92
